Reported EC50 is given for each of the following substances.
Test system: human red blood cells
Assay: Hemolytic assay
Format: cell-based
Details: red cells of human
Procedure: The hemolytic activities of the peptides were determined using fresh human red blood cells. 8 ml blood was taken from a healthy person. […] The hematocrit in the blood treated with EDTA was determined after 30 min with Sysmex K-1000, and the resuspended RBCs were diluted into 10% hematocrit. […] The supernatant were carefully transferred to new polycarbonate tubes and the absorbance of the supernatant was measured at 540 nm. […]
Ends that are not written are not given here.
PROPERTY_MEASURED: EC50

                                  substance  assay_value
0  PAWFKAFRWAWRMLKKAA-OH [LFB 14-31 A2,6, 10, 17F7K16L14]     > 440 µM
1  PAWRKAFRWAWRMKKLAA-OH [LFB 14-31 A2,6, 10, 17F7R4]     > 440 µM
2  PAARKAFRWAWRMLKKAA-OH [LFB 14-31A2,3,6, 10, 17F7K16L14R4]     > 463 µM
